biological target: recombinant human LIMK1 (Homo sapiens, UniProt P53667); construct: 6His (N); assay: Radiometric LIMK1 kinase assay; conditions: Lineweaver-Burk plots, ATP competition
Sequence (P53667 whole entry): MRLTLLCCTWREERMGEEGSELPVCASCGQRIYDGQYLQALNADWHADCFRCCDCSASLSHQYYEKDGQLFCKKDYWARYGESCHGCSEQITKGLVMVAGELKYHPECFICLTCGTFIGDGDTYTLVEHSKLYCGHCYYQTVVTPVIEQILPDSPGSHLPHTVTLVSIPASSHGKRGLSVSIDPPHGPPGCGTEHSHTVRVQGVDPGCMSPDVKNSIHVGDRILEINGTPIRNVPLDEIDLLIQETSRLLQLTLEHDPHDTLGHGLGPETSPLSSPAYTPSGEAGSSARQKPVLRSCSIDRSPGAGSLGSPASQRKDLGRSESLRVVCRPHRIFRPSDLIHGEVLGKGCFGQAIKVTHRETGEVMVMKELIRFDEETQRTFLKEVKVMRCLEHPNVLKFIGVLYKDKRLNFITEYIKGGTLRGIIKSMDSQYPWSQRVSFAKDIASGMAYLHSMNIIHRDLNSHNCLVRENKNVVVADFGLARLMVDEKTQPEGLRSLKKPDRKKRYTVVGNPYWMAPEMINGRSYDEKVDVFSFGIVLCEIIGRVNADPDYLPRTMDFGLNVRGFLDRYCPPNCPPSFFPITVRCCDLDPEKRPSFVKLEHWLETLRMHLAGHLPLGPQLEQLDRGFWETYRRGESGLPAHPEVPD
pKi: −log10 of the molar value.
Reported property: pKi

Problem: Kindly state the measured pKi obtained for "Cc1c2cc[nH]c(=O)c2c(C)c2c1[nH]c1ccc(OC(=O)c3ccccc3)cc12" with recombinant human LIMK1 (Homo sapiens, UniProt P53667).
Solution: ~7.22

----------
system: MES-SA cells; test: Cell growth test (MTT), MES-SA; type: cell-based; conditions: Homo sapiens, MTT test after 48 h, read-out: IC50 (concentration necessary to inhibit 50% of cell growth)
Reported property: IC50
Write the numeric value and append its unit.

1. Cc1c2cc[nH]c(=O)c2c(C)c2c1[nH]c1ccc(OCc3ccccc3)cc12 = 33.9 µM

Problem: Item under review: "Cc1c2cc[nH]c(=O)c2c(C)c2c1[nH]c1ccc(OC(=O)c3ccccc3)cc12" . Reported IC50?
Solution: 26 µM
